// provenance: the kinase profiling compilation of Christmann-Franck et al. (2016)

Molecular target: SRPK1 (human) (UniProt Q96SB4)
Sequence (Q96SB4 whole entry, looked up): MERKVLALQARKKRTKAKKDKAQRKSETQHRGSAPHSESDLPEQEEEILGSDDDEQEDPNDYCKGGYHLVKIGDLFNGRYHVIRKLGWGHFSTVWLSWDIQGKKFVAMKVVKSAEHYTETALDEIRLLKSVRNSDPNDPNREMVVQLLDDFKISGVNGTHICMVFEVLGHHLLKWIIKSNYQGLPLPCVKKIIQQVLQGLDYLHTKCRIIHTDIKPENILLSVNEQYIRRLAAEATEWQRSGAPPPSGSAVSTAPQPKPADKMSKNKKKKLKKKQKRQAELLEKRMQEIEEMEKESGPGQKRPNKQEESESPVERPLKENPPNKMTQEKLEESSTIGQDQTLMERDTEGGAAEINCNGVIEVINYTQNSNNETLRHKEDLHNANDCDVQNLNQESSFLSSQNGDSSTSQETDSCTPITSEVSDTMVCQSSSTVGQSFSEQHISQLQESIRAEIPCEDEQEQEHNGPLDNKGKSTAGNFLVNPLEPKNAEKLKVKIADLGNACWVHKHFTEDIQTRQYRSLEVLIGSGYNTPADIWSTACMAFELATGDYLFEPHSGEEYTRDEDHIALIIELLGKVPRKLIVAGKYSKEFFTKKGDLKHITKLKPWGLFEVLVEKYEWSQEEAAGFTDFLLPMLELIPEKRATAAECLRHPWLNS
Test: radiometric filter-binding kinase assay, Kinase HotSpot
Settings: compound 0.5 µM; ATP 10 µM
Measured property: residual activity (%)
Provide the reading as a plain figure in %.

These recorded examples may help you get a feel for the data.
N/C(=N\N=C/c1ccc(-c2cccc([N+](=O)[O-])c2)o1)N[N+](=O)[O-]: 94.9
c1ccc(-c2cnc(Nc3ccc(OCCN4CCCC4)cc3)s2)cc1: 99.9
O=c1[nH]c2ccccc2n1C1CCN(Cc2ccc(-c3nc4cc5[nH]cnc5cc4nc3-c3ccccc3)cc2)CC1: 106

Request body: readout residual activity, system SRPK1 (human) (UniProt Q96SB4), query O=C(c1ccccc1)c1ccc(N2CCOCC2)cc1O . Return the value.
94.2

Request body: readout residual activity, system SRPK1 (human) (UniProt Q96SB4), query N#CCCc1ccc2c(c1)-c1[nH]c3ccc([N+](=O)[O-])cc3c1CC(=O)N2 . Return the value.
107

Request body: readout residual activity, system SRPK1 (human) (UniProt Q96SB4), query O=c1c2ccccc2[nH]c(=S)n1CCN1CCC(=C(c2ccc(F)cc2)c2ccc(F)cc2)CC1 . Return the value.
97.8

Request body: readout residual activity, system SRPK1 (human) (UniProt Q96SB4), query O=c1c(-c2ccc(F)cc2)c(-c2ccncc2)[nH]n1-c1ccc(Cl)cc1 . Return the value.
97.9

Request body: readout residual activity, system SRPK1 (human) (UniProt Q96SB4), query O=c1cc(N2CCOCC2)oc2c(-c3ccccc3)cccc12 . Return the value.
104

Request body: readout residual activity, system SRPK1 (human) (UniProt Q96SB4), query COc1cc2c(N3CCN(C(=O)Nc4ccc(OC(C)C)cc4)CC3)ncnc2cc1OCCCN1CCCCC1 . Return the value.
98.2

Request body: readout residual activity, system SRPK1 (human) (UniProt Q96SB4), query CCCCc1c(-c2ccc(O)cc2)[nH]c2nccnc12 . Return the value.
101
